Kindly state IC50 for each of the entries shown.
# TESTED_ON: KRAS G13C (Homo sapiens (Human), UniProt P01116+P62937, G13C)
# Sequence (P01116 other isoform, or with tags, fused parts or gaps G13C): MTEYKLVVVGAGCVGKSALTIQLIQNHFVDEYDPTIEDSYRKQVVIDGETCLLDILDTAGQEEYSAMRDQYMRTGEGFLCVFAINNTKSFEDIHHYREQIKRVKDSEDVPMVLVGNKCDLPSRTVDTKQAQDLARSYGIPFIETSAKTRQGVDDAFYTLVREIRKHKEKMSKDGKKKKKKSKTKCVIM
# Sequence (P62937 whole entry): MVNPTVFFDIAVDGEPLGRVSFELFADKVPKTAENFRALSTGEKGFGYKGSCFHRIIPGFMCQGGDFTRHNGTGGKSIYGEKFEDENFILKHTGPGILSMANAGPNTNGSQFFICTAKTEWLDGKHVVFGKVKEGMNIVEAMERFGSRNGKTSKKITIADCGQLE
# ASSAY_INFO: Ras-Raf disruption/FRET/MOA assay (BRAF RBD, Cyclophilin A)
# Format: biochemical
# ASSAY_SETUP: read-out: KRAS G13C FRET IC50

Problem: Fill in: IC50 of CCn1c(-c2cccnc2[C@H](C)OC)c2c3cc(ccc31)-c1csc(n1)C[C@H](NC(=O)[C@H](C(C)C)N(C)C(=O)N(C)C1(C)COC1)C(=O)N1CCC[C@H](N1)C(=O)OCC(C)(C)C2 [Compound A527] is ___
Result: 1000 to 10000 nM

Problem: Fill in: IC50 of CCn1c(-c2cccnc2[C@H](C)OC)c2c3cc(ccc31)-c1csc(n1)C[C@H](NC(=O)C1(F)CC1)C(=O)N1CCC[C@H](N1)C(=O)OCC(C)(C)C2 [Compound A362] is ___
Result: 100 to 1000 nM

Problem: Fill in: IC50 of CCn1c(-c2cccnc2[C@H](C)OC)c2c3cc(ccc31)-c1cc(O)cc(c1)C[C@H](NC(=O)[C@H](C(C)C)N(C)C(=O)C1CCC3(CCOC3)O1)C(=O)N1CCC[C@H](N1)C(=O)OCC(C)(C)C2 (stereo partly drawn) [Compound A409] is ___
Result: 10 to 100 nM

Problem: Fill in: IC50 of CCn1c(-c2cccnc2[C@H](C)OC)c2c3cc(ccc31)-c1csc(n1)C[C@H](NC(=O)[C@H](C(C)C)N(C)C(=O)N1CC[C@@H]1C)C(=O)N1CCC[C@H](N1)C(=O)OCC(C)(C)C2 [Compound A304] is ___
Result: 100 to 1000 nM

Problem: Fill in: IC50 of CCn1c(-c2cccnc2[C@H](C)OC)c2c3cc(ccc31)-c1csc(n1)C[C@H](NC(=O)[C@H](C(C)C)N(C)C(=O)N1CC[C@@H]1CN)C(=O)N1CCC[C@H](N1)C(=O)OCC(C)(C)C2 [Compound A558] is ___
Result: 100 to 1000 nM

Problem: Fill in: IC50 of CCO[C@@H]1c2nc(cs2)-c2ccc3c(c2)c(c(-c2cc(C4CCN(C5COC5)CC4)cnc2[C@H](C)OC)n3CC)CC(C)(C)COC(=O)[C@@H]2CCCN(N2)C(=O)[C@H]1NC(=O)[C@H]1[C@H](C)[C@@H]1C [Compound A449] is ___
Result: 100 to 1000 nM

Problem: Fill in: IC50 of CCn1c(-c2cnccc2COC)c2c3cc(ccc31)-c1cc(O)cc(c1)C[C@H](NC(=O)[C@H](C(C)C)N(C)C(=O)[C@H]1CN(C(C)=O)C[C@H]1C(F)(F)F)C(=O)N1CCC[C@H](N1)C(=O)OCC(C)(C)C2 [Compound A215] is ___
Result: 10 to 100 nM

Problem: Fill in: IC50 of CCn1c(-c2cccnc2[C@H](C)OC)c2c3cc(ccc31)-c1cc(O)cc(c1)C[C@H](NC(=O)[C@H](C(C)C)N(C)C(=O)[C@H]1CCN(C(=O)OC3CC3)C1)C(=O)N1CCC[C@H](N1)C(=O)OCC(C)(C)C2 [Compound A202] is ___
Result: 10 to 100 nM

Problem: Fill in: IC50 of CCn1c(-c2cccnc2[C@H](C)OC)c2c3cc(ccc31)-c1csc(n1)C[C@H](NC(=O)N1CCOCC1)C(=O)N1CCC[C@H](N1)C(=O)OCC(C)(C)C2 [Compound A270] is ___
Result: 100 to 1000 nM

Problem: Fill in: IC50 of CCn1c(-c2cccnc2[C@H](C)OC)c2c3cc(ccc31)-c1cc(O)cc(c1)C[C@H](NC(=O)[C@H](C(C)C)N(C)C(=O)C1CCc3ncccc3C1)C(=O)N1CCC[C@H](N1)C(=O)OCC(C)(C)C2 (stereo partly drawn) [Compound A247] is ___
Result: 10 to 100 nM

Problem: Fill in: IC50 of CCn1c(-c2cccnc2[C@H](C)OC)c2c3cc(ccc31)-c1csc(n1)C[C@H](NC(=O)[C@H](C(C)C)N(C)C(=O)N1CC([C@H](C)N(C)C)C1)C(=O)N1CCC[C@H](N1)C(=O)OCC(C)(C)C2 [Compound A538] is ___
Result: 100 to 1000 nM

Problem: Fill in: IC50 of CCn1c(-c2cccnc2[C@H](C)OC)c2c3cc(ccc31)-c1csc(n1)C[C@H](NC(=O)[C@H]1[C@H](C)[C@@H]1C)C(=O)N1CCC[C@H](N1)C(=O)OCC(C)(C)C2 [Compound A227] is ___
Result: 10 to 100 nM
